experiment_summary: in vitro
settings: mouse, plasma
reported_endpoint: remaining at 18 h

The reported value for "CC1(NC(=O)COc2cccc(-c3nc4c(c(Nc5ccc(-c6cn[nH]c6)cc5)n3)CN(C3CCC3)CC4)c2)CC1" in terms of remaining at 18 h is > 95%

----------
experiment_summary: in vivo
settings: mouse, po, 30 mg/kg
reported_endpoint: AUC (ng·h/mL)
Hi! Could you send only the number? It should be in ng·h/mL, unit omitted.

// AUC value for "CC1(NC(=O)COc2cccc(-c3nc4c(c(Nc5ccc(-c6cn[nH]c6)cc5)n3)CN(C3CCC3)CC4)c2)CC1" : 5890

----------
experiment_summary: in vivo
settings: rat, po, 30 mg/kg
reported_endpoint: AUC
Record the result as a number with its unit.

AUC reading for "CC1(NC(=O)COc2cccc(-c3nc4c(c(Nc5ccc(-c6cn[nH]c6)cc5)n3)CN(C3CCC3)CC4)c2)CC1" : 6810 ng·h/mL

----------
experiment_summary: in vivo
settings: dog, po, 10 mg/kg
reported_endpoint: bioavailability (%)
Respond with the bare value in %.

The recorded bioavailability for "CC1(NC(=O)COc2cccc(-c3nc4c(c(Nc5ccc(-c6cn[nH]c6)cc5)n3)CN(C3CCC3)CC4)c2)CC1" is 29

----------
experiment_summary: in vivo
settings: mouse, brain and plasma, po, 30 mg/kg
reported_endpoint: Kp at 2 h
The answer should be written as a number, with no unit following it.

Kp at 2 h for "CC1(NC(=O)COc2cccc(-c3nc4c(c(Nc5ccc(-c6cn[nH]c6)cc5)n3)CN(C3CCC3)CC4)c2)CC1" is 0.05

----------
experiment_summary: in vitro
settings: human, Caco-2
Reported Papp A→B at 5 µM values for a set of compounds
The reply should contain only the number, in ×10⁻⁶ cm/s.

Record "CC(C)(C)NC(=O)COc1cccc(-c2nc3c(c(Nc4ccc(-c5cn[nH]c5)cc4)n2)CN(C2CCC2)CC3)c1" , field Papp A→B at 5 µM: 4.58

# ---- query compound ----
Notebook: "CC1(NC(=O)COc2cccc(-c3nc4c(c(Nc5ccc(-c6cn[nH]c6)cc5)n3)CN(C3CCC3)CC4)c2)CC1" , Papp A→B at 5 µM read as 11.2

----------
experiment_summary: in vivo
settings: rat, iv, 10 mg/kg
reported_endpoint: Vd (L/kg)
Write the value in L/kg as a bare number.

Lab book: Vd of "CC1(NC(=O)COc2cccc(-c3nc4c(c(Nc5ccc(-c6cn[nH]c6)cc5)n3)CN(C3CCC3)CC4)c2)CC1" noted as 4.51

----------
experiment_summary: in vivo
settings: rat, po, 30 mg/kg
reported_endpoint: Cmax (ng/mL)
Reply with just the number (in ng/mL).

Documented Cmax of "CC1(NC(=O)COc2cccc(-c3nc4c(c(Nc5ccc(-c6cn[nH]c6)cc5)n3)CN(C3CCC3)CC4)c2)CC1" : 1680

----------
Some compounds, each annotated with its measured Papp B→A at 5 µM.
experiment_summary: in vitro
settings: human, Caco-2
Kindly provide the numeric value in ×10⁻⁶ cm/s only, without the unit symbol.

Value of Papp B→A at 5 µM reported for the compound "CC(C)(C)NC(=O)COc1cccc(-c2nc3c(c(Nc4ccc(-c5cn[nH]c5)cc4)n2)CN(C2CCC2)CC3)c1" is 6.09

Others:
What the record says about "CC1(NC(=O)COc2cccc(-c3nc4c(c(Nc5ccc(-c6cn[nH]c6)cc5)n3)CN(C3CCC3)CC4)c2)CC1" : Papp B→A at 5 µM is 4.33

----------
experiment_summary: in vitro
settings: mouse, liver microsomes
reported_endpoint: half-life at 2 µM (h)
Give just the number in h; leave the unit off.

Documented half-life at 2 µM of "CC1(NC(=O)COc2cccc(-c3nc4c(c(Nc5ccc(-c6cn[nH]c6)cc5)n3)CN(C3CCC3)CC4)c2)CC1" : 1.17

----------
experiment_summary: in vitro
settings: dog, liver microsomes
reported_endpoint: half-life

Documented half-life of "CC1(NC(=O)COc2cccc(-c3nc4c(c(Nc5ccc(-c6cn[nH]c6)cc5)n3)CN(C3CCC3)CC4)c2)CC1" : 58 min

----------
experiment_summary: in vitro
settings: human, liver microsomes
reported_endpoint: half-life
Write the quantity with the unit trailing the number.

Note to self: half-life recorded for "CC1(NC(=O)COc2cccc(-c3nc4c(c(Nc5ccc(-c6cn[nH]c6)cc5)n3)CN(C3CCC3)CC4)c2)CC1" was 1.93 h

----------
experiment_summary: in vivo
settings: rat, iv, 10 mg/kg
reported_endpoint: clearance (mL/min/kg)
Give just the numeric value; mL/min/kg need not be written.

Entry "CC1(NC(=O)COc2cccc(-c3nc4c(c(Nc5ccc(-c6cn[nH]c6)cc5)n3)CN(C3CCC3)CC4)c2)CC1" ; clearance = 37

----------
experiment_summary: in vivo
settings: mouse, po, 30 mg/kg
reported_endpoint: Cmax (ng/mL)
Give a bare numeral; the unit ng/mL is implied.

// "CC1(NC(=O)COc2cccc(-c3nc4c(c(Nc5ccc(-c6cn[nH]c6)cc5)n3)CN(C3CCC3)CC4)c2)CC1" : Cmax value = 2520

----------
experiment_summary: in vivo
settings: mouse
reported_endpoint: half-life (min)
State just the number; it will be interpreted in min.

Consider "CC1(NC(=O)COc2cccc(-c3nc4c(c(Nc5ccc(-c6cn[nH]c6)cc5)n3)CN(C3CCC3)CC4)c2)CC1" . Its measured half-life is 47.1

----------
experiment_summary: physchem
settings: phosphate buffered saline, pH 2
Reported solubility values for the following compounds.
The figure you give is taken to be in µM; do not add the unit.

Sample "CCOc1ccc2nc(-c3cccc(OCC(=O)NC(C)C)c3)nc(Nc3ccc(-c4cn[nH]c4)cc3)c2c1" ; solubility observed: 3.36

# input for lookup
Looking up "CC1(NC(=O)COc2cccc(-c3nc4c(c(Nc5ccc(-c6cn[nH]c6)cc5)n3)CN(C3CCC3)CC4)c2)CC1" , I see its solubility listed as 291

----------
experiment_summary: in vitro
settings: rat, liver microsomes
reported_endpoint: half-life at 2 µM (h)
Write the number in h without appending the unit.

The reported value for "CC1(NC(=O)COc2cccc(-c3nc4c(c(Nc5ccc(-c6cn[nH]c6)cc5)n3)CN(C3CCC3)CC4)c2)CC1" in terms of half-life at 2 µM is 1.05

----------
experiment_summary: in vivo
settings: mouse, po, 30 mg/kg
reported_endpoint: bioavailability (%)
Provide the reading as a plain figure in %.

Data point: "CC1(NC(=O)COc2cccc(-c3nc4c(c(Nc5ccc(-c6cn[nH]c6)cc5)n3)CN(C3CCC3)CC4)c2)CC1" ; bioavailability = 45.4
